# assay-method-text: Metabolic Stability (H = Human)
# Format: in vitro ADME
metric-name: Metabolic Stability H

molecule="CC(NC(=O)N(C)C1CCN(C)CC1)c1ccc(-c2cnc3[nH]ccc3c2)c(Cl)c1Cl (centres unmarked)" measured="Medium H Medium M"
molecule="CCN(C(=O)NC(C)c1ccc(-c2cnccn2)c(Cl)c1Cl)C1CCN(C)CC1 (centres unmarked)" measured=High
molecule="CC(O)c1ccc(-c2ccc(C(C)NC(=O)N(C)C3CCN(C)CC3)c(Cl)c2Cl)s1 (centres unmarked)" measured="Medium H Medium M"

---

# assay-method-text: Metabolic Stability (M = Mouse)
# Format: in vitro ADME
metric-name: Metabolic Stability M

Completed entries (count: 10):
molecule="CC(NC(=O)N(C)C1CCN(C)CC1)c1ccc(CO)c(Cl)c1Cl (stereo not drawn)" metric_name="Metabolic Stability M" measured="High H High M"
molecule="CC(NC(=O)N(C)C1CCN(C)CC1)c1ccc(-c2cnc3[nH]ccc3c2)c(Cl)c1Cl (stereo not drawn)" metric_name="Metabolic Stability M" measured="Medium H Medium M"
molecule="CC(NC(=O)N(C)C1CCN(C)CC1)c1ccc(-c2ncccn2)c(Cl)c1Cl (stereo not drawn)" metric_name="Metabolic Stability M" measured="High H High M"
molecule=C[C@H](NC(=O)N(C)C1CCN(C)CC1)c1ccc(-c2cncc(F)n2)c(Cl)c1Cl metric_name="Metabolic Stability M" measured="High H High M"
molecule="CN1CCC(N(C)C(=O)NC(CC2CC2)c2ccc(-c3cccnc3)c(Cl)c2Cl)CC1 (stereo not drawn)" metric_name="Metabolic Stability M" measured=High
molecule="CC(NC(=O)N(Cc1ccc(CO)cc1)C1CCN(C)CC1)c1ccc(-c2cn[nH]c2)c(Cl)c1Cl (stereo not drawn)" metric_name="Metabolic Stability M" measured=Poor
molecule="CC(NC(=O)N(C)C1CCN(C)CC1)c1ccc(-c2cncc(C#N)c2)c(Cl)c1Cl (stereo not drawn)" metric_name="Metabolic Stability M" measured="High H High M"
molecule="CC(NC(=O)N(C)C1CCN(C)CC1)c1ccc(-c2cccs2)c(Cl)c1F (stereo not drawn)" metric_name="Metabolic Stability M" measured="Medium H Medium M"
molecule="CCC(NC(=O)N(C)C1CCN(C)CC1)c1ccc(-c2cnccn2)c(Cl)c1Cl (stereo not drawn)" metric_name="Metabolic Stability M" measured="High H High M"
molecule="CCC(NC(=O)N(C)C1CCN(C)C1)c1ccc(-c2cnccn2)c(Cl)c1Cl (stereo not drawn)" metric_name="Metabolic Stability M" measured=Low

[Q] Output Metabolic Stability M of CC(NC(=O)N(C)C1CCN(C)CC1)c1ccc(-c2cocn2)c(Cl)c1Cl (stereo not drawn)
[A] Medium H Medium M

[Q] Supply measured Metabolic Stability M of CC(NC(=O)N(C)C1CCN(C)CC1)c1ccc(C#CC2CC2)c(Cl)c1Cl (stereo not drawn) in your reply.
[A] High H High M

[Q] Dear colleague, please send me the reported Metabolic Stability M for C#Cc1ccc(C(C)NC(=O)N(C)C2CCN(C)CC2)c(Cl)c1Cl (single isomer, unassigned) [Compound H0677] when you can.
[A] Medium

[Q] Please indicate Metabolic Stability M recorded for CC(NC(=O)N(C)C1CCN(C)CC1)c1ccc(-c2cccc(N)c2)c2ccccc12 (stereo not drawn)
[A] Medium H Medium M

[Q] Report Metabolic Stability M, nothing else, for this molecule: CC(NC(=O)N(C)C1CCN(C)C1)c1ccc(-c2ccsc2)c(Cl)c1Cl (stereo not drawn)
[A] Poor

[Q] State its Metabolic Stability M for this molecule: CC(NC(=O)N(C)C1CCN(C)CC1)c1ccc(-c2cncc(-c3cncs3)c2)c(Cl)c1Cl (stereo not drawn)
[A] Medium

[Q] Look up and state reported Metabolic Stability M for CC(=O)c1ccc(-c2ccc(C(C)NC(=O)N(C)C3CCN(C)CC3)c(Cl)c2Cl)s1 (stereo not drawn)
[A] Medium H Medium M

[Q] Please list Metabolic Stability M recorded for the molecule CC(NC(=O)N(C)C1CCN(C)CC1)c1ccc(-c2cscn2)c(Cl)c1Cl (stereo not drawn)
[A] High H High M

[Q] Quick one: give measured Metabolic Stability M for CC(NC(=O)N(C)C1CCN(C)CC1)c1ccc(-c2ccsc2)c(Cl)c1Cl (stereo not drawn)
[A] High
